Give measured Activity for each item. Keep answers brief.
# MEASUREMENT_NOTES: Antiinflammatory activity assessed as prevention of hypotonicity-induced lysis of human RBC at 200 ug/ml
# Format: functional, Erythrocyte
Could you give me the number in %? Just the number is fine.

stdin: Give its Activity value. Item: "Cc1cc2c(cc1C)COc1ccccc1C(=O)Nc1ccccc1SCc1ccc(cc1)-c1ccc(cc1)CSc1ccccc1NC(=O)c1ccccc1OC2"
stdout: 91

stdin: Using the record for "O=C1CSc2ccccc2NC(=O)c2ccccc2OCc2ccccc2COc2ccccc2C(=O)Nc2ccccc2SCC(=O)Nc2ccccc2N1" , report its Activity.
stdout: 49.65

stdin: Report Activity for "Cc1cc2c(cc1C)COc1ccccc1C(=O)Nc1ccccc1SCc1ccc(cc1)NC(=O)c1ccccc1OC2" please.
stdout: 60.86

stdin: Consider the compound shown here: "Cc1cc2c(cc1C)COc1ccccc1C(=O)N(c1ccccc1)CCNC(=O)COc1ccccc1OCC(=O)NCCN(c1ccccc1)C(=O)c1ccccc1OC2" What is its recorded Activity?
stdout: 47.97

stdin: Need Activity of "Cc1cc2c(cc1C)COc1ccccc1C(=O)Nc1ccccc1SCc1ccc(cc1)-c1cccc(c1)-c1ccc(cc1)CSc1ccccc1NC(=O)c1ccccc1OC2" , thanks.
stdout: 54.14

stdin: Field request: Activity | item: "Cc1cc2c(cc1C)COc1ccccc1C(=O)Nc1ccccc1SCCOc1ccc(cc1)NC(=O)c1ccccc1OC2"
stdout: 51.27
